Answer each item with its documented IC50.
Target under test: Human immunodeficiency virus type 1 integrase (Human immunodeficiency virus 1, UniProt Q7ZJM1)
Sequence (Q7ZJM1 whole entry): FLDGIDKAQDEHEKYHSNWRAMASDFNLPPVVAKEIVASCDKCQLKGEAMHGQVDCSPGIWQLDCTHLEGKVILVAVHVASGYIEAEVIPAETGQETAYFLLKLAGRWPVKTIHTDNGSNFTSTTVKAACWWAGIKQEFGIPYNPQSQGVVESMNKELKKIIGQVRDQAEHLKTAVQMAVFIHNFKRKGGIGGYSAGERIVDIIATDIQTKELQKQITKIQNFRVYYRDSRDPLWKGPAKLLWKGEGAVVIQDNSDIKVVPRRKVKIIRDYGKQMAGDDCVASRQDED
Assay summary: Inhibition of wild type HIV1 integrase strand transfer activity

Recorded IC50, per entry:
CC[C@@H](C)[C@@H](NC(=O)[C@@H](CCCCN)NC(=O)[C@@H](CCC(N)=O)NC(=O)[C@@H](CCC(=O)O)NC(=O)[C@H](N)Cc1ccccc1)C(=O)NCC(=O)N[C@H](C)C(=O)N[C@H](Cc1c[nH]c2ccccc12)C(=O)N[C@H](Cc1c[nH]c2ccccc12)C(=O)N[C@@H](CS)C(=O)N[C@H](C)C(=O)O; > 1000 µM
CC(C)C[C@@H](NC(=O)[C@@H](CCCCN)NC(=O)[C@@H](CC(C)C)NC(=O)[C@@H](CC(C)C)NC(=O)[C@@H](Cc1ccccc1)NC(=O)[C@@H](Cc1ccc(O)cc1)NC(=O)[C@@H](C)NC(=O)[C@H](N)[C@H](C)O)C(=O)N[C@H](C)C(=O)NCC(=O)N[C@H](CCCN=C(N)N)C(=O)N[C@H](Cc1c[nH]c2ccccc12)C(N)=O; 13 µM

Kindly indicate its recorded IC50. Item: `CC[C@@H](C)[C@@H](NC(=O)CNC(=O)[C@@H](C)NC(=O)[C@@H](Cc1c[nH]c2ccccc12)NC(=O)[C@@H](Cc1c[nH]c2ccccc12)NC(=O)[C@@H](CS)NC(=O)[C@@H](C)N)C(=O)N[C@H](CCCCN)C(=O)N[C@H](CCC(N)=O)C(=O)N[C@H](CCC(=O)O)C(=O)N[C@H](Cc1ccccc1)C(=O)O` > 1000 µM
